target: Neuropeptide Y receptor type 5 (Homo sapiens, UniProt Q15761); assay: Displacement of [3H]propionyl-pNPY from human neuropeptide Y Y5 receptor in human HEC-1B cells measured after 90 mins by scintillation counting analysis; assay type: cell-based, HEC-1B cell line; settings: read-out: pKi (converted)
Sequence (Q15761 whole entry): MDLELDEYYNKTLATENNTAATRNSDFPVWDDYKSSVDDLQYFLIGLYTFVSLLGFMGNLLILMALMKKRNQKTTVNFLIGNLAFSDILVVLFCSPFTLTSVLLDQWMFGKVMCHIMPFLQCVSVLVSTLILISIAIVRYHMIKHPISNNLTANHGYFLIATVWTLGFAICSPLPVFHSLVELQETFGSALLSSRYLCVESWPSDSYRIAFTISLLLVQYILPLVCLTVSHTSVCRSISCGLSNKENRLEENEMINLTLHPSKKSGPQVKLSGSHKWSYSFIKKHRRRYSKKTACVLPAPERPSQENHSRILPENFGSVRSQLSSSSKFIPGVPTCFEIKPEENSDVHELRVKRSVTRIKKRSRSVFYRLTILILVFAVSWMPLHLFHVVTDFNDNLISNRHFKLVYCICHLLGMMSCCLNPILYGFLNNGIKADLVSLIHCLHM
Starred links: 1 amine or outer side, 2 acyl side, 3 side chain; linkers in the order of their positions; H or OH if unused. Residues, ends and D or L forms follow the SMILES beside them. Groups on a side chain read outwards from the residue. *: point of attachment. Suc = O=C(CCC(=O)[*:2])[*:1]; NH(CH2)4NH2 = NCCCCN*; CO = O=C([*:1])[*:2]; NH(CH2)3NH2 = NCCCN*
metric.name: Ki

Here is how some molecules turned out for Ki.
CC(C)C[C@H](NC(=O)[C@H](CCCNC(=N)NC(=O)NCCCCN)NC(=O)[C@H](Cc1c[nH]c2ccccc12)NC(=O)[C@H](CCCNC(=N)N)NC(=O)CCC(=O)O)C(=O)N[C@@H](CCCNC(=N)N)C(=O)N[C@@H](Cc1ccc(O)cc1)C(N)=O    > 10 µM
CC(=O)N[C@@H](CCCNC(=N)N)C(=O)N[C@@H](Cc1ccc(O)cc1)C(=O)N[C@@H](CCCNC(=N)N)C(=O)N[C@@H](CC(C)C)C(=O)N[C@@H](CCCNC(=N)N)C(=O)N[C@@H](Cc1ccc(O)cc1)C(N)=O    > 3.16 µM
CC(C)C[C@H](NC(=O)[C@@H]1CCCNC(=N)NC(=O)NCCCCNC(=O)CCC(=O)N[C@@H](CCCNC(=N)N)C(=O)N[C@@H](Cc2ccc(O)cc2)C(=O)N1)C(=O)N[C@@H](CCCNC(=N)N)C(=O)N[C@@H](Cc1ccc(O)cc1)C(N)=O    > 1 µM
CC(C)C[C@H](NC(=O)[C@H](CCCNC(=N)NC(=O)NCCCN)NC(=O)[C@H](Cc1ccc(O)cc1)NC(=O)[C@H](CCCNC(=N)N)NC(=O)CCC(=O)O)C(=O)N[C@@H](CCCNC(=N)N)C(=O)N[C@@H](Cc1ccc(O)cc1)C(N)=O    > 10 µM
CC(C)C[C@H](NC(=O)[C@@H]1CCCNC(=N)NC(=O)NCCCNC(=O)CCC(=O)N[C@@H](CCCNC(=N)N)C(=O)N[C@@H](Cc2ccc(O)cc2)C(=O)N1)C(=O)N[C@@H](CCCNC(=N)N)C(=O)N[C@@H](Cc1ccc(O)cc1)C(N)=O    > 1 µM
CC(C)C[C@H](NC(=O)[C@H](CCCNC(=N)NC(=O)NCCCCN)NC(=O)[C@H](CCCNC(=N)N)NC(=O)CCC(=O)O)C(=O)N[C@@H](CCCNC(=N)N)C(=O)N[C@@H](Cc1ccc(O)cc1)C(N)=O (Suc-RR([CO-NH(CH2)4NH2])LRY-NH2)    > 10 µM

Data request: State recorded Ki with Neuropeptide Y receptor type 5 (Homo sapiens, UniProt Q15761), entry N=C(N)NCCC[C@H](NC(=O)CCC(=O)O)C(=O)N[C@@H](Cc1ccc(O)cc1)C(=O)N[C@@H](CCCNC(=N)NC(=O)NCCCCN)C(=O)N[C@@H](Cc1c[nH]c2ccccc12)C(=O)N[C@@H](CCCNC(=N)N)C(=O)N[C@@H](Cc1ccc(O)cc1)C(N)=O (single isomer, unassigned) , no comment.
Data returned: > 10 µM

Data request: State recorded Ki with Neuropeptide Y receptor type 5 (Homo sapiens, UniProt Q15761), entry N=C(N)NCCC[C@H](NC(=O)CCC(=O)O)C(=O)N[C@@H](Cc1ccc(O)cc1)C(=O)N[C@@H](CCCNC(=N)NC(=O)NCCCN)C(=O)N[C@@H](Cc1c[nH]c2ccccc12)C(=O)N[C@@H](CCCNC(=N)N)C(=O)N[C@@H](Cc1ccc(O)cc1)C(N)=O (Suc-RYR([CO-NH(CH2)3NH2])WRY-NH2) , no comment.
Data returned: > 3.16 µM
